Readings of pIC50 for the listed molecules
Biological target: Cytochrome P450 2C19 (Homo sapiens, UniProt P33261)
Sequence (P33261 whole entry): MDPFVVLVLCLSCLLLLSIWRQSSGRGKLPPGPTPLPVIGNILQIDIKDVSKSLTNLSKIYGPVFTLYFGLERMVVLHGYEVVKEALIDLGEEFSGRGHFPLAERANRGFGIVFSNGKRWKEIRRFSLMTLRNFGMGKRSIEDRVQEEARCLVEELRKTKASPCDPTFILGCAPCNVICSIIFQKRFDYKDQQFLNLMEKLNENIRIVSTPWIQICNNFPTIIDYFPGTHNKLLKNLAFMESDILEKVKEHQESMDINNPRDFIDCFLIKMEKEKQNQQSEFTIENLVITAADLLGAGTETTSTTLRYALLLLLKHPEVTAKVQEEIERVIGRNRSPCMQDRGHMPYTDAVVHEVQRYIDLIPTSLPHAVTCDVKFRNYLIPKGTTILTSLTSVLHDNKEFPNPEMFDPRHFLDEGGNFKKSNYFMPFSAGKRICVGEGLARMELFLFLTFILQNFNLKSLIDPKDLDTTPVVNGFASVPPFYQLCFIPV
pIC50: −log10 of the molar value.

- molecule: "O=C(c1ccccc1C(F)(F)F)N1CCC(Cc2ccccc2)CC1"
  pIC50: 6.40
- molecule: "Clc1ccc(COC(Cn2ccnc2)c2ccc(Cl)cc2Cl)cc1 (configuration not stated)"
  pIC50: 7.40
- molecule: "CN[C@H]1CC[C@@H](c2ccc(Cl)c(Cl)c2)c2ccccc21"
  pIC50: 6.00
- molecule: "COC1=C(OC)C(=O)C(CCCCCCCCCCO)=C(C)C1=O"
  pIC50: 6.10
- molecule: "O=C(N/N=C/c1ccc([N+](=O)[O-])o1)c1cc([N+](=O)[O-])cc([N+](=O)[O-])c1O"
  pIC50: 5.30
- molecule: "Oc1c(Cl)cc(Cl)c(Cl)c1Cc1c(O)c(Cl)cc(Cl)c1Cl"
  pIC50: 5.91
- molecule: "Cc1c(OCC(F)(F)F)ccnc1C[S+]([O-])c1nc2ccccc2[nH]1 (configuration not stated)"
  pIC50: 6.47
